# system-tested: Cellular tumor antigen p53 (Homo sapiens) (UniProt P04637)
# Sequence (P04637 whole entry, looked up): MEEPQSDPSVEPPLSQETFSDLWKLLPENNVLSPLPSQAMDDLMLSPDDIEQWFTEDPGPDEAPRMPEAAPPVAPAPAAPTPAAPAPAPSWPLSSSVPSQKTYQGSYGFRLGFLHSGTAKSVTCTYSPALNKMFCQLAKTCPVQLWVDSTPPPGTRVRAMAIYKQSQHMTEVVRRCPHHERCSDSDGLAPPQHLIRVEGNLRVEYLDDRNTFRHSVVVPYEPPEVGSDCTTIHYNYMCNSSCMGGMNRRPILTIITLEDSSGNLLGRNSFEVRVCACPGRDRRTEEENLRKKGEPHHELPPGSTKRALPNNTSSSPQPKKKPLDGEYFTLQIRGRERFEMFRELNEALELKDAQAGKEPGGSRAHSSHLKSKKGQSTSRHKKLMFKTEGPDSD
# protocol-notes: kinase inhibitors altering GFP-p53 stability in HPV16-positive cells, imaging, known kinase inhibitor set, EGFP/DsRed ratio (AID 1053116);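 note: test concentration not given here; cells exposed to compounds for 24 h at 37 °C before reading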
# protocol-conditions: stronger effect = higher value
property-name: EGFP/DsRed ratio
Output: the number by itself.

Problem: Tell us which EGFP/DsRed ratio value is on record for COC1CCC2NC3C4NC5CCC(OC)CC5C4C4C(=O)NC(=O)C4C3C2C1 (stereo not given)
Solution: 0.0486

Problem: Tell us which EGFP/DsRed ratio value is on record for `O=C1NC(=O)C(c2ccccc2Cl)=C1Nc1cccc(O)c1`
Solution: 0.0989

Problem: Tell us which EGFP/DsRed ratio value is on record for `COc1ccccc1CN=C1NC(=O)C(=Cc2ccc3ncccc3c2)S1`
Solution: 0.187

Problem: Tell us which EGFP/DsRed ratio value is on record for `Cn1cc(C2=C(c3cn(-c4ccccc4)c4ccccc34)C(=O)NC2=O)c2ccccc21`
Solution: 0.0255

Problem: Tell us which EGFP/DsRed ratio value is on record for `COc1cccc(COc2cc(-n3cnc4ccccc43)sc2C(N)=O)c1`
Solution: 0.0452

Problem: Tell us which EGFP/DsRed ratio value is on record for `Cn1cc(C2=C(Nc3ccccc3)C(=O)NC2=O)c2ccccc21`
Solution: 0.118

Problem: Tell us which EGFP/DsRed ratio value is on record for `CN1CCN(Cc2ccc(-c3cc4ncnc(Nc5ccc(OCc6cccc(F)c6)c(Cl)c5)c4s3)o2)CC1`
Solution: 0.213

Problem: Tell us which EGFP/DsRed ratio value is on record for `C[C@@H](Oc1cc(-n2cnc3ccc(OC[C@@H](O)CO)cc32)sc1C(N)=O)c1ccccc1Cl`
Solution: 0.0656

Problem: Tell us which EGFP/DsRed ratio value is on record for `Cn1cc(C2=C(c3cccc(N)c3)C(=O)NC2=O)c2ccccc21`
Solution: 0.303

Problem: Tell us which EGFP/DsRed ratio value is on record for `Cn1c(=O)c(Oc2ccc(F)cc2F)cc2cnc(NC3CCS(=O)(=O)CC3)nc21`
Solution: 0.324

----------
# protocol-notes: IRF3 reporter activation in THP-1 macrophages, cell-based, PMA-stimulated THP-1, luminescence (AID 1053176)
# protocol-conditions: PMA-differentiated THP-1, IRF3 reporter luminescence; stronger effect = higher value
I'd be grateful if you could share measured fraction signal for these entries.
Output: the number by itself.

Problem: Tell us which fraction signal value is on record for `Cc1ccc(C(=O)NC2CCCCC2)cc1-c1ccc(C(=O)NCC2CC2)cc1`
Solution: -0.007

Problem: Tell us which fraction signal value is on record for `CC(=Nc1ccc(S(N)(=O)=O)cc1)c1c(O)[nH]c2ccccc12`
Solution: 0.0025

Problem: Tell us which fraction signal value is on record for `Cn1c(=O)c(-c2ccccc2Cl)cc2cnc(NC3CCOCC3)nc21`
Solution: -0.0055

Problem: Tell us which fraction signal value is on record for `COc1cc[nH]c1C=C1C(=O)Nc2ccc(F)c(I)c21`
Solution: 0.0015

Problem: Tell us which fraction signal value is on record for `C[C@@H](Oc1cc(-n2cnc3ccc(OC4CCN(C)CC4)cc32)sc1C(N)=O)c1ccccc1Cl`
Solution: -0.008

Problem: Tell us which fraction signal value is on record for `Cc1cc(Cl)cc2c(N=Nc3ccc(S(N)(=O)=O)cc3)c(O)[nH]c12`
Solution: -0.0045

Problem: Tell us which fraction signal value is on record for `O=C1NC(=NCCc2ccccn2)SC1=Cc1ccc2ncccc2c1`
Solution: 0.0055

Problem: Tell us which fraction signal value is on record for `CCOc1nccc2c1nc(-c1nonc1N)n2CC`
Solution: 0

Problem: Tell us which fraction signal value is on record for `O=S1CCN(Cc2ccc(-c3ccc4ncnc(Nc5ccc(OCc6ccccc6)c(F)c5)c4c3)o2)CC1`
Solution: 0.012

Problem: Tell us which fraction signal value is on record for O=C1NC(=NCC(CO)c2ccccc2)SC1=Cc1ccc2ncccc2c1 (stereo unspecified)
Solution: 0.006

Problem: Tell us which fraction signal value is on record for `OCCCNc1nccc(-c2c(-c3ccc(F)cc3)nn3cc(C(F)(F)F)ccc23)n1`
Solution: -0.0065

Problem: Tell us which fraction signal value is on record for `COc1cccc(C2=C(c3cn(C)c4cccc(OC)c34)C(=O)NC2=O)c1`
Solution: 0.0015

Problem: Tell us which fraction signal value is on record for `COc1cc(Nc2nccc(Nc3ccc4c(C)[nH]nc4c3)n2)cc(OC)c1OC`
Solution: -0.01

Problem: Tell us which fraction signal value is on record for `Cn1cc(C2=C(c3cn(C)c4ccccc34)C(=O)NC2=O)c2ccccc21`
Solution: -0.001

Problem: Tell us which fraction signal value is on record for `CN(C)CCOc1ccc(-c2nc(-c3ccc4c(c3)CC/C4=N\O)c(-c3ccncc3)[nH]2)cc1`
Solution: -0.008

Problem: Tell us which fraction signal value is on record for `Cn1c(=O)c(Oc2ccc(F)cc2F)cc2cnc(NCCS(C)(=O)=O)nc21`
Solution: 0.0015

Problem: Tell us which fraction signal value is on record for `COc1cc(/C=N/Nc2ncnc3c2cnn3C(C)C)ccc1O`
Solution: -0.006

Problem: Tell us which fraction signal value is on record for `Cn1cc(C2=C(NN3CCOCC3)C(=O)NC2=O)c2ccccc21`
Solution: -0.016

Problem: Tell us which fraction signal value is on record for `CCCn1cc(C2=C(c3cn(C)c4ccccc34)C(=O)NC2=O)c2ccccc21`
Solution: 0.0035

Problem: Tell us which fraction signal value is on record for `CC(=O)Nc1cccc(C#Cc2cncnc2Nc2ccc(OCc3cccc(F)c3)c(Cl)c2)n1`
Solution: -0.0035

Problem: Tell us which fraction signal value is on record for CC1=C(C(=O)Nc2ccc3[nH]ncc3c2)C(c2ccc(F)cc2)N=C(c2ccc(C(F)(F)F)nc2)N1 (stereo unspecified)
Solution: -0.004

Problem: Tell us which fraction signal value is on record for `NS(=O)(=O)c1ccc(N=Nc2c(O)[nH]c3ccc(C(=O)NCCCn4ccnc4)cc23)cc1`
Solution: -0.0065

Problem: Tell us which fraction signal value is on record for `Nc1c(C(=O)c2ccc(CCCN3CCOCC3)cc2)cnn1-c1ccc(F)cc1`
Solution: 0.001

Problem: Tell us which fraction signal value is on record for `Nc1nc(-c2ccc(F)cc2)c(-c2ccc3ncccc3n2)s1`
Solution: -0.002

Problem: Tell us which fraction signal value is on record for `Cc1ccc(C)c(C2=C(c3cn(C)c4ccccc34)C(=O)NC2=O)c1`
Solution: 0.0035

Problem: Tell us which fraction signal value is on record for CCN1CCC(CC(=O)NC2NNC3NNC(c4cccc(F)c4F)CC32)CC1 (stereo unspecified)
Solution: -0.004

Problem: Tell us which fraction signal value is on record for `c1cnn2ncc(-c3ccnc(NCCCN4CCOCC4)n3)c2c1`
Solution: -0.004

Problem: Tell us which fraction signal value is on record for `c1ccc(Nc2ncc(-c3ccccc3)o2)cc1`
Solution: -0.011

Problem: Tell us which fraction signal value is on record for `COc1cccc(F)c1C(=O)c1cnc(NC2CCN(S(C)(=O)=O)CC2)nc1N`
Solution: -0.018

Problem: Tell us which fraction signal value is on record for `O=C1OC(=O)C(c2c[nH]c3ccccc23)=C1c1c[nH]c2ccccc12`
Solution: -0.018

Problem: Tell us which fraction signal value is on record for `Cn1cc(C2=C(c3cn(CCCCO)c4ccccc34)C(=O)NC2=O)c2ccccc21`
Solution: -0.005

Problem: Tell us which fraction signal value is on record for `CS(=O)(=O)CCCn1c(=O)c(Oc2ccc(F)cc2F)cc2cnc(NC3CCOCC3)nc21`
Solution: -0.009

Problem: Tell us which fraction signal value is on record for `Cn1c(=O)c(Oc2ccc(F)cc2F)cc2cnc(NCC(C)(C)O)nc21`
Solution: -0.001

Problem: Tell us which fraction signal value is on record for `C[C@@H](Oc1cc(-n2cnc3ccc(OC[C@@H](O)CO)cc32)sc1C(N)=O)c1ccccc1Cl`
Solution: -0.0045

Problem: Tell us which fraction signal value is on record for `COC(=O)Nc1nc2ccc(Oc3ccc(NC(=O)Nc4cccc(Br)c4)cc3)cc2[nH]1`
Solution: -0.001

Problem: Tell us which fraction signal value is on record for CC(CO)Nc1cc(-c2[nH]c3cccnc3c2-c2ccc(F)cc2)ccn1 (stereo unspecified)
Solution: -0.0075
